B1: Azoarcus group I ribozyme (parent)
chain: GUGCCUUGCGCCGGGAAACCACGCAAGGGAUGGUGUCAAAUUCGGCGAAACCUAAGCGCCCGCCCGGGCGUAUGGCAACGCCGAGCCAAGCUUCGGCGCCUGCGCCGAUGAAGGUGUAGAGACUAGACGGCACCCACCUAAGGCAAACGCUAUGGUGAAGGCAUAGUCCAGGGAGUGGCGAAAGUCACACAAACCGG

Variants of: B1
Assay: reverse-splicing fitness (ratio to wild type); higher = more active; in vitro selection; Mg2+ level not given
For each record, write down the corresponding reverse-splicing fitness.
Give bare numbers.

- C82G A120U A145U C169U U176A: 0.00334
- C82G A111G A120C A145U C150A C169G: 0.00822
- C82G A120G A145G C150A C169G U176A: 0.0188
- C82A A111C A145U C169U U176A: 0.0149
- C82U A111C A120C A145U C169A: 0.00732
- C82A A111G C150G: 0.024
- C82U A111G A120C A145G C150A C169G U176A: 0.0237
- C82G A111G A120C C150U C169U: 0.0144
- C82U A111C A145G C169U U176A: 0.0178
- C82U A111C A120U A145C C150U C169G U176G: 0.00216

Please give reverse-splicing fitness, item by item, for the list that follows.
1. C82U A111U A145U C150A U176G
2. C82A A111U A120U A145U C150G C169A U176A
3. C82A A111C A145G C150U C169U U176A
4. A111U C150G C169A U176G

1. 0.00782
2. 0.00398
3. 0.0138
4. 0.00689
